Data credit: patent US7863289B2

Assay target: Fms (Homo sapiens)
Sequence (P07333 20-972): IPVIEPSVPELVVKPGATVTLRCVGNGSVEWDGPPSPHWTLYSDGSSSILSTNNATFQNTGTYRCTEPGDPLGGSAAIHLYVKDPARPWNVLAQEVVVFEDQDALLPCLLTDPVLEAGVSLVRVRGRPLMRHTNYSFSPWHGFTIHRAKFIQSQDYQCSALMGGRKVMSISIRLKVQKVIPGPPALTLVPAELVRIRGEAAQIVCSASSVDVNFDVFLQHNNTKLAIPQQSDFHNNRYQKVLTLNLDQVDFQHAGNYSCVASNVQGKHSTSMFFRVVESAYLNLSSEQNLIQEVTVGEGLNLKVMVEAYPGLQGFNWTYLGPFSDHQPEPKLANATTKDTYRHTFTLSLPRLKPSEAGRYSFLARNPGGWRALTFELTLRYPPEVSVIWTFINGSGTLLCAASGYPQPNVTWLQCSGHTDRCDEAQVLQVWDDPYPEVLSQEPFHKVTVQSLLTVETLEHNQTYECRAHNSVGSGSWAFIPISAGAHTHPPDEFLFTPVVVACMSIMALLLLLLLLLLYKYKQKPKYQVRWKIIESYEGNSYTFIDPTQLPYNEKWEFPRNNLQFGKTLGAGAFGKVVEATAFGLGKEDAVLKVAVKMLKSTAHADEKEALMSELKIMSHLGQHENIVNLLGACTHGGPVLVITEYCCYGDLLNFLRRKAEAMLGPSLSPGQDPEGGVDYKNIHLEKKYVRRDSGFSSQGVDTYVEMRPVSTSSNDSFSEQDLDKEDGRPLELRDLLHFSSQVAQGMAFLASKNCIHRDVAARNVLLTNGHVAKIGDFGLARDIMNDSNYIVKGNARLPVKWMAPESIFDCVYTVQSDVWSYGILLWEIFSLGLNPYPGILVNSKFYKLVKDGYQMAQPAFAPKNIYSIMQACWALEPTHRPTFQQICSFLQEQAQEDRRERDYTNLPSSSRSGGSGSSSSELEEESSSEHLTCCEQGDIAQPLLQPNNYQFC
Result type: IC50

[
  {
    "Compound smiles": "O=C(c1c(F)ccc(NS(=O)(=O)c2ccc3oc(=O)ccc3c2)c1F)c1c[nH]c2ncc(Cl)cc12",
    "Assay target": "Fms (Homo sapiens)",
    "Reported value": "≤ 10 µM"
  }
]

Form field, IC50 with Fms (Homo sapiens), item O=C(c1c(F)ccc(NS(=O)(=O)c2ccc3ncsc3c2)c1F)c1c[nH]c2ncc(Cl)cc12 : ≤ 10 µM

For the compound O=C(c1c(F)ccc(NS(=O)(=O)c2ccc(-c3cnco3)s2)c1F)c1c[nH]c2ncc(Cl)cc12 , the measured IC50 on Fms (Homo sapiens) was ≤ 10 µM

Considering O=C(c1c(F)ccc(NS(=O)(=O)c2ccc(-c3ccno3)s2)c1F)c1c[nH]c2ncc(Cl)cc12 , its IC50 with Fms (Homo sapiens) was recorded as ≤ 10 µM
